- measurement.target: T1, cynomolgus monkey (Macaca fascicularis) TfR1 (cynomolgus monkey (Macaca fascicularis), UniProt Q5RDH6 89-760 (Pongo abelii entry), limits assumed)
- T1 construct: also called cTfR1; cyTfR1
- T1 chain: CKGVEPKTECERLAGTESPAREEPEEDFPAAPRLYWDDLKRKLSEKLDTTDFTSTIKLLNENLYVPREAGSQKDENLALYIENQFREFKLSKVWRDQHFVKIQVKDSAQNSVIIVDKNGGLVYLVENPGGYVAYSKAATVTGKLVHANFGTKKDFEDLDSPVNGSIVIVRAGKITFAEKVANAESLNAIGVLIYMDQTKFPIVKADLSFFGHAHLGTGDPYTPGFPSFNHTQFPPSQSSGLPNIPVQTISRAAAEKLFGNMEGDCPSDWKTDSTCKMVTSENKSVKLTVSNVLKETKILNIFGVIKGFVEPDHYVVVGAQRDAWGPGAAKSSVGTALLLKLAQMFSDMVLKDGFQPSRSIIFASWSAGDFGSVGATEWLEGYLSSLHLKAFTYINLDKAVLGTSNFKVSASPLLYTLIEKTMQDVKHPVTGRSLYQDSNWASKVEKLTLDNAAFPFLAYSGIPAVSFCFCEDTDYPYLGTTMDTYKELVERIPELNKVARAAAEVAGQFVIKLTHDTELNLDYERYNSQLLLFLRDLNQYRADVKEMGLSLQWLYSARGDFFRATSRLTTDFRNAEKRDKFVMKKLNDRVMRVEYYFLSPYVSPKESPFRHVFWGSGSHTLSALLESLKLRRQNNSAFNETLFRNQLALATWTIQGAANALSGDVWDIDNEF
- protocol.details: ELISA, coated recombinant TfR1, Fab-ASO300 conjugate
result.type: EC50 (nM)
The figure you give is taken to be in nM; do not add the unit.

Before answering, review these 4 worked examples.
INPUT: Quick check: EC50 of conjugate of humanized anti-TfR Fab 3A4 VH3/Vk4 with DMPK-targeting oligonucleotide ASO300 (Fab, V domains shown, ASO300 oligonucleotide attached through a cleavable Val-Cit linker (Formula (C)); residue and chain not stated, also called 3A4 (VH3/Vk4) conjugate; DMPK oligo conjugate) VH: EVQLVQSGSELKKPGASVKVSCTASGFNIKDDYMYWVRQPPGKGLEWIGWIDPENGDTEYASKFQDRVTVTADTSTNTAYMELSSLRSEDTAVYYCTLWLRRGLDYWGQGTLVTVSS VL: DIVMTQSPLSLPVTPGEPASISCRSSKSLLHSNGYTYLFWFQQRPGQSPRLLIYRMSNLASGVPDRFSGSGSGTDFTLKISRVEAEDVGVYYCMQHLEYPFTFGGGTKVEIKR ?
OUTPUT: 7.6

INPUT: What would you report for conjugate of humanized anti-TfR Fab 5H12 VH5 (C33Y)/Vk4 with DMPK-targeting oligonucleotide ASO300 (Fab, V domains shown, ASO300 oligonucleotide attached through a cleavable Val-Cit linker (Formula (C)); residue and chain not stated, also called 5H12 (VH5-C33Y/Vk4) conjugate; DMPK oligo conjugate) VH: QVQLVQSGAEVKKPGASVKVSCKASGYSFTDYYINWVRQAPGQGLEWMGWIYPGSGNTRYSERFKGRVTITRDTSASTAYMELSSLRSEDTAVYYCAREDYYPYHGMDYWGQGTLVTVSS VL: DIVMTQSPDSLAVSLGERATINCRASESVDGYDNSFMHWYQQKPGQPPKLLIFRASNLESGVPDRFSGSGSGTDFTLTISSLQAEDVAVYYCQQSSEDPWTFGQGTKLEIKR ?
OUTPUT: 3.3

INPUT: What would you report for conjugate of humanized anti-TfR Fab 3M12 VH3/Vk2 with DMPK-targeting oligonucleotide ASO300 (Fab, V domains shown, ASO300 oligonucleotide attached through a cleavable Val-Cit linker (Formula (C)); residue and chain not stated, also called 3M12 (VH3/Vk2) conjugate; DMPK oligo conjugate) VH: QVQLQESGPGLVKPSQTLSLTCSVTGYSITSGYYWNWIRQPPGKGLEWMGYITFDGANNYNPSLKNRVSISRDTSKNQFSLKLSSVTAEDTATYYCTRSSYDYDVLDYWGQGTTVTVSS VL: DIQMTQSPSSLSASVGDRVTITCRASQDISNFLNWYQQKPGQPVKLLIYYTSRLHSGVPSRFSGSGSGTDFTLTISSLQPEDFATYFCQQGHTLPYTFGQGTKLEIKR ?
OUTPUT: 2.9

INPUT: What would you report for conjugate of humanized anti-TfR Fab 5H12 VH5 (C33Y)/Vk3 with DMPK-targeting oligonucleotide ASO300 (Fab, V domains shown, ASO300 oligonucleotide attached through a cleavable Val-Cit linker (Formula (C)); residue and chain not stated, also called 5H12 (VH5-C33Y/Vk3) conjugate) VH: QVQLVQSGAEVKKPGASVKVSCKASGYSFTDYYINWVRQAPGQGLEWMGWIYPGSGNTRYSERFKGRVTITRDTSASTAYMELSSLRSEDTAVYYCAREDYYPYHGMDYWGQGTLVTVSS VL: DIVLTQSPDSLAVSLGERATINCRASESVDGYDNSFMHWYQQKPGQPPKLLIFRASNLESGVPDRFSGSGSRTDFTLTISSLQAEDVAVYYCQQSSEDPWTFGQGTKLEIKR ?
OUTPUT: 2.3

Continuing:
INPUT: Quick check: EC50 of conjugate of humanized anti-TfR Fab 3M12 VH4/Vk3 with DMPK-targeting oligonucleotide ASO300 (Fab, V domains shown, ASO300 oligonucleotide attached through a cleavable Val-Cit linker (Formula (C)); residue and chain not stated, also called 3M12 (VH4/Vk3) conjugate; DMPK oligo conjugate) VH: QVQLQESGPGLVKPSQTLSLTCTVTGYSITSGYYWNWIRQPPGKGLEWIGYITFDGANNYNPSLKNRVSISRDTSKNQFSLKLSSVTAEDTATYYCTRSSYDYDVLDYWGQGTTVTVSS VL: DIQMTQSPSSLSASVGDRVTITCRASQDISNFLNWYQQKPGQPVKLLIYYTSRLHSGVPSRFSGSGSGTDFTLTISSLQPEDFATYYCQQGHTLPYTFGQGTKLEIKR ?
OUTPUT: 2.1
